These entries and their values trace back to PubChem BioAssay (NCI).

# Test system: DU-145 prostate
# protocol-notes: NCI-60 one-dose screen, 48 h
# condition: 10 µM unless noted
Compounds without any hit were thinned out: in the full panel of roughly 83,000, 20% have a hit. Calls of active or inactive are those of the source. Rule for the calls: active = growth percent below 10; inactive = the rest.
Give one outcome, nothing more. List: TRUE (active), FALSE (inactive)

Solved entries:
{"columns": ["compound", "label-class"],
 "data": [
  ["FC(F)c1nc2ccccc2n1-c1nc(N2CCOCC2)nc(N2CCOCC2)n1", "TRUE"],
  ["COC(=O)[C@H](Cc1ccccc1)NC(=O)[C@@H](OC)[C@@H]1Cc2cc3cc(OC4CC(OC5CC(O)C(O)C(C)O5)C(O)C(C)O4)c(C)c(O)c3c(O)c2C(=O)[C@H]1OC1CC(OC2CC(OC3CC(C)(O)C(O)C(C)O3)C(O)C(C)O2)C(O)C(C)O1 (some centres undefined)", "FALSE"],
  ["C=CC(=O)Nc1cc2c(Nc3ccc(F)c(Cl)c3)ncnc2cc1C#CC(C)(C)N1CCN(C)CC1", "TRUE"]
]}

Q: Which outcome was assigned to CCOC(=O)C1=C(C)N=C2Sc3cccc(OC)c3N2[C@H]1c1ccccn1 in this test?
Result: FALSE

Q: Hello, I am checking results. What call was entered for C=C1C(=O)O[C@H]2[C@H]1CC/C(CNC(=O)c1cc3cc(OC)ccc3[nH]1)=C\CC[C@@]1(C)O[C@@H]21 ?
Result: TRUE

Q: Tell me the assay call for O=CC(OC(=O)c1ccccc1)C(OC(=O)c1ccccc1)C(COC(c1ccccc1)(c1ccccc1)c1ccccc1)OC(=O)c1ccccc1 (centres undefined) please.
Result: FALSE
